Reference source: patent US20230000956A1

Experiment: Serum MTX level after outpatient HD-MTX with glucarpidase (Example 3)
Format: in vivo
Settings: human, intravenous, outpatient MTX 3.5 g/m^2, glucarpidase 2000 U next day, 7 treatments, 3 patients, all cases, read-out: serum MTX levels at 48 hours
Property name: concentration at 48 h

Could you tell me which concentration at 48 h is on file for CN(Cc1cnc2nc(N)nc(N)c2n1)c1ccc(C(=O)N[C@@H](CCC(=O)O)C(=O)O)cc1 [MTX, Methotrexate] ?
< 100 nM
